Taken from ChEMBL document CHEMBL1128172.

experiment.notes: Solubility in saline
Assay type: physicochemical
settings: saline; read-out: S
Where a SMILES comes first, the peptide text is derived from it.
Consider the following compounds; for each one, report its solubility.
Answers are plain numbers, in µg/mL.

solubility measured on CC(C)C[C@@H]1NC(=O)[C@@H](c2cccs2)NC(=O)[C@@H]2CCCN2C(=O)[C@@H](CC(=O)O)NC(=O)[C@@H](Cc2c[nH]c3ccccc23)NC1=O (single isomer, unassigned) = 4000

New cases:
solubility measured on CC[C@H](C)[C@H]1NC(=O)[C@H](C)NC(=O)[C@@H](CCC(=O)O)NC(=O)[C@@H](Cc2c[nH]c3ccccc23)NC(=O)[C@H](CC(C)C)NC1=O (HELM PEPTIDE1{A.[CC[C@H](C)[C@@H](N[*:1])C(=O)[*:2]].L.[dW].[dE]}$PEPTIDE1,PEPTIDE1,1:R1-5:R2$$$V2.0) = 210

* * *

Consider the following molecules; for each one, report its IC50 max.
assay.target: Endothelin-1 receptor (Sus scrofa)
experiment.notes: The compound was tested for binding inhibitory activity against Endothelin A receptor from porcine aortic smooth muscle membranes.

Known results for molecules:
IC50 max measured on CC(C)C[C@@H]1NC(=O)[C@@H](C(C)C)NC(=O)[C@@H]2CCCN2C(=O)[C@@H](CCC(=O)O)NC(=O)[C@@H](Cc2c[nH]c3ccccc23)NC1=O (single isomer, unassigned) = 0.41 µM

IC50 max measured on CC(C)C[C@@H]1NC(=O)[C@@H](C(C)C)NC(=O)[C@H](Cc2cnc[nH]2)NC(=O)[C@@H](CC(=O)O)NC(=O)[C@@H](Cc2c[nH]c3ccccc23)NC1=O (single isomer, unassigned) = 0.24 µM

IC50 max measured on CC(C)C[C@@H]1NC(=O)[C@@H](C(C)C)NC(=O)[C@H](Cc2ccccc2)NC(=O)[C@@H](CC(=O)O)NC(=O)[C@@H](Cc2c[nH]c3ccccc23)NC1=O (single isomer, unassigned) = 0.21 µM

IC50 max measured on CC(C)[C@H]1NC(=O)[C@H](C)NC(=O)[C@@H](CC(=O)O)NC(=O)[C@@H](Cc2c[nH]c3ccccc23)NC(=O)[C@H](CC2CCCCC2)NC1=O (single isomer, unassigned) = 5.6 µM

Proceed to the following item.
IC50 max measured on CSCC[C@@H]1NC(=O)[C@@H](CC(=O)O)NC(=O)[C@@H](Cc2c[nH]c3ccccc23)NC(=O)[C@H](CC(C)C)NC(=O)[C@@H](C(C)C)NC1=O (single isomer, unassigned) = 0.13 µM

* * *

assay.target: Endothelin-1 receptor (Sus scrofa, UniProt Q29010)
Sequence (Q29010 whole entry): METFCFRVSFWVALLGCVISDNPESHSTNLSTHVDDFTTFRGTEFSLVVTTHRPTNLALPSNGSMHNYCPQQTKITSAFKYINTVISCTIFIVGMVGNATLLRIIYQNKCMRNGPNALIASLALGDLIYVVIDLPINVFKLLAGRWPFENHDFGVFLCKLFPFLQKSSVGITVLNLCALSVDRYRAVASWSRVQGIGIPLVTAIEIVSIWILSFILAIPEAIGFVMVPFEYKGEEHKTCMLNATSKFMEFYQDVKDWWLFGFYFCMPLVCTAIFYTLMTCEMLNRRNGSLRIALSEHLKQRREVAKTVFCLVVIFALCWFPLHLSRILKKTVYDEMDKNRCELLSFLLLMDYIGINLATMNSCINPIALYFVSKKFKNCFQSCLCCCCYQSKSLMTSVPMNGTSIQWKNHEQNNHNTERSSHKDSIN
experiment.notes: The compound was tested for binding inhibitory activity against Endothelin A receptor from porcine aortic smooth muscle membranes.
Consider the following compounds; for each one, report its IC50 max.
Answers are plain numbers, in µM.

Known results for compounds:
IC50 max measured on CC(C)C[C@@H]1NC(=O)[C@@H](C(C)C)NC(=O)[C@@H]2CCCN2C(=O)[C@@H](CC(=O)O)NC(=O)[C@@H](Cc2cn(C=O)c3ccccc23)NC1=O (single isomer, unassigned) = 0.018

IC50 max measured on CC(C)C[C@@H]1NC(=O)[C@@H](C(C)C)NC(=O)[C@H](C)N(C)C(=O)[C@@H](CC(=O)O)NC(=O)[C@@H](Cc2c[nH]c3ccccc23)NC1=O (single isomer, unassigned) = 0.034

IC50 max measured on CC[C@H](C)[C@H]1NC(=O)[C@@H]2CCCN2C(=O)[C@@H](CC(=O)O)NC(=O)[C@@H](Cc2c[nH]c3ccccc23)NC(=O)[C@H](CC(C)C)NC1=O = 0.012

IC50 max measured on CC(C)C[C@@H]1NC(=O)[C@@H](C(C)C)NC(=O)[C@H](Cc2c[nH]c3ccccc23)NC(=O)[C@@H](CC(=O)O)NC(=O)[C@@H](Cc2c[nH]c3ccccc23)NC1=O (single isomer, unassigned) = 0.15

Report IC50 max for each item below.
1. CC(C)C[C@@H]1NC(=O)[C@@H](C)NC(=O)[C@H](CC(=O)O)NC(=O)[C@H](Cc2c[nH]c3ccccc23)NC(=O)[C@@H](CC(C)C)NC1=O
2. CCC[C@@H]1NC(=O)[C@@H](C(C)C)NC(=O)[C@@H]2CCCN2C(=O)[C@@H](CC(=O)O)NC(=O)[C@@H](Cc2c[nH]c3ccccc23)NC1=O (single isomer, unassigned)
3. CC(C)C[C@@H]1NC(=O)[C@@H](C(C)C)NC(=O)[C@@H]2CCCN2C(=O)[C@@H](CC(=O)O)NC(=O)[C@@H](Cc2c[nH]c3ccccc23)NC1=O (single isomer, unassigned)
4. CC(C)C[C@@H]1NC(=O)[C@@H](C(C)C)NC(=O)[C@@H]2CCCN2C(=O)[C@@H](CS(=O)(=O)O)NC(=O)[C@@H](Cc2c[nH]c3ccccc23)NC1=O (single isomer, unassigned)

[0.44, 0.033, 0.022, 0.021]

IC50 max measured on CC(C)[C@H]1NC(=O)[C@H](CC(=O)O)NC(=O)[C@@H](CC(=O)O)NC(=O)[C@@H](Cc2c[nH]c3ccccc23)NC(=O)[C@H](C)NC1=O (single isomer, unassigned) = 2.8
